system: T1, EndoF1 (Elizabethkingia meningoseptica (assumed), UniProt P36911)
T1 construct: EndoF1, unrelated antigen used as negative control
T1 sequence (P36911 51-339): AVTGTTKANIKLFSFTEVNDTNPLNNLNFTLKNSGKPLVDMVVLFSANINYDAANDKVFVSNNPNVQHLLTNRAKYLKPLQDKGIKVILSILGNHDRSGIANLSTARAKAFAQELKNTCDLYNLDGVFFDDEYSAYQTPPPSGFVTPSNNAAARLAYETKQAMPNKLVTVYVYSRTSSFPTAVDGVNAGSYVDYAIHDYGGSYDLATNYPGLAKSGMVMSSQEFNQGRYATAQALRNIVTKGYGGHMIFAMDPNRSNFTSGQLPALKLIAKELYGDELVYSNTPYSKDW
assayRemarks: ELISA; wells of 96-well plates coated with EGFR protein fragment or unrelated antigens; purified sdAbs added; protein A-HRP, TMB, absorbance at 450 nm
conditions: both partners purified

{"binder": "anti-EGFR single-domain antibody aEG2E12 (purified) (VHH, fully human VH domain on the V3-23/D47 framework with diversified CDR1-3; Fully human VH-only single-domain antibody (about 15 kDa), selected from the Source BioScience human domain antibody library; subcloned NcoI/NotI into pET22b(+); also called anti-EGFR sdAb; source: E. coli BL21 (DE3), pET22b(+), purified (Ni-NTA)) VHH: QVQLLESGGGLVQPGGSLRLSCAASGYSSNNEFMAWVRQAPGKGLEWVSAISTRNGSTYYADSVKGRFTISRDNSKNTLYLQMNSLRAEDTAVYYCAGVSYRRPQQLKYWGQGTLVTVSS", "binding result": "no binding"}
{"binder": "anti-EGFR single-domain antibody aEG2C7 (purified) (VHH, fully human VH domain on the V3-23/D47 framework with diversified CDR1-3; Fully human VH-only single-domain antibody (about 15 kDa), selected from the Source BioScience human domain antibody library; subcloned NcoI/NotI into pET22b(+); also called anti-EGFR sdAb; source: E. coli BL21 (DE3), pET22b(+), purified (Ni-NTA)) VHH: QVQLLESGGGLVQPGGSLRLSCAASGFTFNNEIMAWVRQAPGKGLEWVSSIAANNGSTYYADSVKGRFTISRDNSKNTLYLQMNSLRAEDTAVYYCARYAAEPHTYSMGNKSLRYWGQGTLVTVSS", "binding result": "no binding"}
